Provide the recorded phosphorylation enrichment for the entries that follow.
test system: Fer (mouse); experiment: phosphorylation enrichment, bacterial display (enrichment ratio); higher = better substrate or ligand; peptides without Tyr show the background;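 also: 11-residue human phosphosite peptides and single-mutation variants displayed on the E. coli surface, counted by deep sequencing, each peptide's frequency after selection divided by its frequency in the unselected input library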;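 also: frequency after pTyr selection over input frequency; kinase dosed for 20-30% of maximal phosphorylation in three min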
Write the value as a bare number.

Name the recorded phosphorylation enrichment for FLTSSYINIST [IL23R_Y178_YF] . 0.375

# phosphorylation enrichment lookup, item RGDSAYHSQRH [ERBB3_Y1132] 0.569

Fill in: phosphorylation enrichment of DNAYQYMLTDR [MYH7_Y164] is ___ 2.74

Give its phosphorylation enrichment value. Item: LIPIKYKAMKK [MYD88_Y257] 0.405

For SNYRAYATEPH [TNNI3_Y29] , what is its reported phosphorylation enrichment? 0.379

Query: phosphorylation enrichment; subject: QMVRMYASSFM [AVPR2_Y124_G122R_YF] 0.482

phosphorylation enrichment lookup needed for RGDCTYAPLLG [AR_Y269_M268T] , thanks. 1.33

Please look up its phosphorylation enrichment: KSNSDYVDVLP [SH2D1B_Y127_N122K] 0.583

GET /values?readout=phosphorylation enrichment&item= FEHVGYTTLNR [CHN1_Y148_YF] 0.445

What does the data say about its phosphorylation enrichment? Entry: RSGIYYKPESL [L2HGDH_Y103_H98R] 0.699

Using the record for ETLLFYGFRRS [POR_Y564_C566Y_YF] , report its phosphorylation enrichment. 0.405

Please report the recorded phosphorylation enrichment for KGFRGYSFDDI [TMEM230_Y110_YF] . 0.409

What value of phosphorylation enrichment has been reported for the following sequence? EHAGEYGAEAL [HBA1_Y25_A20E] 0.427

Give its phosphorylation enrichment value. Item: RVKPIYFHTQG [AR_Y916_K911R] 0.764

Query (sequence): NTFEKYWLFFQ [GATM_Y103_P105L_YF] ; field requested: phosphorylation enrichment 0.478

Fill blank: measured phosphorylation enrichment of the sequence ALWFIYLHTRS [ENG_Y614_S615L_YF] is ____. 0.485

Tell me the measured phosphorylation enrichment of PIPAAYNKFDQ [CDC73_Y290_R292K_YF] , please. 0.798

Suppose we examine the sequence PLGKDYRKVEG [MAP1A_Y1909_A1912V] ; what phosphorylation enrichment value has been reported? 0.456

Request the reported phosphorylation enrichment associated with INSLKYAFNIS [EIF2B5_Y583_YF] 0.385

Bench note: what phosphorylation enrichment did AGREIYESDKC [TTN_Y4424] show? 0.519

Give its phosphorylation enrichment value. Item: SVTCTDSPALN [TP53_Y126_Y126D] 0.567

Quick one: phosphorylation enrichment for PPLMLYNPTTY [EGFR_Y270] ? 0.613

For the sequence PVQAASQKVVA [HBB_Y131_Y131S] , what phosphorylation enrichment is on record? 0.414

Reported phosphorylation enrichment, sequence PLFKICVAELI [MRPL28_Y230_Y230C] : ____ 0.707

# query: phosphorylation enrichment of entry TFEPNYGTVKR [RAPGEF6_Y1447_Q1452R_YF] 0.701

Look up phosphorylation enrichment for this sequence: TVEDHDYEGGI [TKT_Y563_Y563D] 0.559

// returns reported phosphorylation enrichment for input EYHRLYEEYTR [PIK3R1_Y467_D464H] 2.31

Which phosphorylation enrichment is reported for this sequence? KELAPYDENCF [RPS19_Y48_W52C] 0.632

I would be grateful if you could share the reported phosphorylation enrichment for RDSQIYAVDYE [MRPS34_Y34_L33I] . 1.89
